- protocol summary: Hemolysis assay (red blood cell lysis)
- Type: cell-based, sheep
- condition label: sheep, washed red blood cells from defibrinated sheep blood; 64 μg/mL; read-out: hemolysis (RBC lysis) at 64 μg/mL
outcome measure: hemolysis at 1 h, 64 μg/mL

compound: CCOC(=O)C1=C(c2cccc(C(F)(F)F)c2)NC(N)=NC1c1ccc(CC(C)C)cc1 (stereo not shown)
result: > 20%

* * *

- System: Staphylococcus aureus
- protocol summary: S. aureus growth inhibition (all three strains or strain not specified)
- Format: cell-based
- condition label: Staphylococcus aureus; all three S. aureus strains or strain not specified; read-out: concentration inhibiting S. aureus growth (MIC)
Measured MIC by item

compound: CCOC(=O)C1=C(c2cccc(C(F)(F)F)c2)NC(N)=NC1c1ccc(CC(C)C)cc1 (centres unmarked)
unit text: µg/mL
result comparator: =
MIC: 2
--
compound: CCOC(=O)C1=C(c2ccccc2)NC(N)=NC1c1ccc(OC)cc1 (centres unmarked)
unit text: µg/mL
result comparator: >
MIC: 64
--
compound: O=Cc1ccc(C2(C(F)(F)F)N=N2)cc1
unit text: µg/mL
result comparator: >
MIC: 64
--
compound: CCOC(=O)C1=C(c2ccccc2)NC(N)=NC1c1ccc(C(C)C)cc1 (centres unmarked)
unit text: µg/mL
result comparator: =
MIC: 8
--
compound: C#CCCCOC(=O)C1=C(c2ccc(C3(C(F)(F)F)N=N3)cc2)NC(N)=NC1c1ccc(CC(C)C)cc1 (centres unmarked) [26h]
unit text: µg/mL
result comparator: =
MIC: 2
